target: WT KRAS (Homo sapiens); assay: KRAS WT Probe Displacement Assay (TR-FRET, GDP-loaded); type: binding; details: KRAS^WT Probe Displacement Assay IC50, KRAS WT
reportedEndpoint: IC50

compound="Cc1cc(N)cc(-c2nc3c4c(nc(OCC5(CN6CCOCC(F)C6)CC5)nc4c2F)N2C[C@H]4CC[C@H](N4)[C@H]2CCO3)c1C(F)(F)F (some centres unmarked)" system="WT KRAS (Homo sapiens)" valuemeasured="3 to 1000 nM"
compound=Cc1cc(N)cc(-c2nc3c4c(nc(OCC5(CN6C[C@H]7COC[C@H]7C6)CC5)nc4c2F)N2C[C@H]4CC[C@H](N4)[C@H]2CCO3)c1C(F)(F)F system="WT KRAS (Homo sapiens)" valuemeasured="0.3 to 3 nM"
compound=Cc1cc(N)cc(-c2nc3c4c(nc(OCC5(CN6CCC(C(F)(F)F)CC6)CC5)nc4c2F)N2C[C@H]4CC[C@H](N4)[C@H]2CCO3)c1C(F)(F)F system="WT KRAS (Homo sapiens)" valuemeasured="0.3 to 3 nM"
compound=Cc1cc(N)cc(-c2nc3c4c(nc(OCC5(CN6CCC7(CCOCC7)C6)CC5)nc4c2F)N2C[C@H]4CC[C@H](N4)[C@H]2CCO3)c1C(F)(F)F system="WT KRAS (Homo sapiens)" valuemeasured="3 to 1000 nM"
compound="COC1CN(CC2(COc3nc4c5c(nc(-c6cc(N)cc(C)c6C(F)(F)F)c(F)c5n3)OCC[C@@H]3[C@@H]5CC[C@H](CN43)N5)CC2(F)F)C1 (single isomer, unassigned)" system="WT KRAS (Homo sapiens)" valuemeasured="3 to 1000 nM"

###

Item-by-item account of pIC50
Target: KRAS G12D (Homo sapiens, UniProt P01116, G12D)
Sequence (P01116 1-188 isoform P01116-2 G12D): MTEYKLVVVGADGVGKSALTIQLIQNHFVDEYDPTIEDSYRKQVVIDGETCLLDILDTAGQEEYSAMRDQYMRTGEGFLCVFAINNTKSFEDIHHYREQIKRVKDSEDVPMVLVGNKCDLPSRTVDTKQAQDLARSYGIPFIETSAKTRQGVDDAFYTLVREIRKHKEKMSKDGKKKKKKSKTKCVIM
Assay: KRAS G12D Probe Displacement Assay (TR-FRET, GDP-loaded)
Assay type: binding
Details: KRAS G12D, read-out: KRAS^G12D Probe Displacement Assay IC50
Excerpt: The synthetic routes of probe 1 and 2, which have been disclosed in PCT/CN2022/070676, are hereby incorporated herein.
pIC50: −log10 of the molar value.
reportedEndpoint: pIC50

compound=Cc1cc(N)cc(-c2nc3c4c(nc(O[C@@H](C)[C@@H]5[C@H]6C[C@H]6CN5C)nc4c2F)N2C[C@H]4CC[C@H](N4)[C@H]2CCO3)c1C(F)(F)F system="KRAS G12D (Homo sapiens, UniProt P01116, G12D)" valuemeasured="> 9.52"
compound=Cc1cc(N)cc(-c2nc3c4c(nc(OC[C@H]5COC[C@@H]5N(C)C)nc4c2F)N2C[C@H]4CC[C@H](N4)[C@H]2CCO3)c1C(F)(F)F system="KRAS G12D (Homo sapiens, UniProt P01116, G12D)" valuemeasured="6.00 to 8.52"
compound="[2H]C([2H])([2H])N1CCC(C(F)F)C(C)(C([2H])([2H])Oc2nc3c4c(nc(-c5cc(N)cc(Cl)c5C(F)(F)F)c(F)c4n2)OCC[C@@H]2[C@@H]4CC[C@H](CN32)N4)C1 (single isomer, unassigned) [Example 247]" system="KRAS G12D (Homo sapiens, UniProt P01116, G12D)" valuemeasured="> 9.52"
compound=C=C1CN2C[C@H](F)C[C@]2(COc2nc3c4c(nc(-c5cc(N)cc(Cl)c5C(F)(F)F)c(F)c4n2)OCC[C@@H]2[C@@H]4CC[C@H](CN32)N4)C1 system="KRAS G12D (Homo sapiens, UniProt P01116, G12D)" valuemeasured="> 9.52"
compound=Cc1cc(N)cc(-c2nc3c4c(nc(OCC5(CN6C[C@@H](C)O[C@@H](C)C6)CC5)nc4c2F)N2C[C@H]4CC[C@H](N4)[C@H]2CCO3)c1C(F)(F)F system="KRAS G12D (Homo sapiens, UniProt P01116, G12D)" valuemeasured="> 9.52"

###

Item-by-item account of IC50
molecular target: WT KRAS (Homo sapiens, UniProt P01116); experiment: KRAS WT Probe Displacement Assay (TR-FRET, GDP-loaded); type: binding; conditions: KRAS WT, read-out: KRAS^WT Probe Displacement Assay IC50
Sequence (P01116 1-188 isoform P01116-2): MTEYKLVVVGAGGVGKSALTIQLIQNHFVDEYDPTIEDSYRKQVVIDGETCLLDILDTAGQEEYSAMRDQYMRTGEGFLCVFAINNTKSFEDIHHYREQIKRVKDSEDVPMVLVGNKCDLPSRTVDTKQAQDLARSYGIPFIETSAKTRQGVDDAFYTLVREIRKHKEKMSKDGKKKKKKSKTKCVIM
reportedEndpoint: IC50

compound="Cc1cc(N)cc(-c2nc3c4c(nc(OCC5(C)CN(C)CCC5C(F)F)nc4c2F)N2C[C@H]4CC[C@H](N4)[C@H]2CCO3)c1C(F)(F)F (single isomer, unassigned) [Example 244]" reportedendpoint=IC50 valuemeasured="3 to 1000 nM"
compound="Cc1cc(N)cc(-c2nc3c4c(nc(OCC5(C)CC(F)CN(C6CCOCC6)C5)nc4c2F)N2C[C@H]4CC[C@H](N4)[C@H]2CCO3)c1C(F)(F)F (single isomer, unassigned) [Example 235]" reportedendpoint=IC50 valuemeasured="3 to 1000 nM"
compound="Cc1cc(N)cc(-c2nc3c4c(nc(O[C@@H](C)[C@@H]5CCCN5C5COC5)nc4c2F)N2C[C@H]4CC[C@H](N4)[C@H]2CCO3)c1C(F)(F)F [Example 227]" reportedendpoint=IC50 valuemeasured="3 to 1000 nM"
compound="Cc1cc(N)cc(-c2nc3c4c(nc(OCC5(CN6CCSCC6)CC5)nc4c2F)N2C[C@H]4CC[C@H](N4)[C@H]2CCO3)c1C(F)(F)F [Example 159]" reportedendpoint=IC50 valuemeasured="0.3 to 3 nM"
compound="Cc1cc(N)cc(-c2nc3c4c(nc(OCC5(CN6CCC(=CF)CC6)CC5)nc4c2F)N2C[C@H]4CC[C@H](N4)[C@H]2CCO3)c1C(F)(F)F [Example 154]" reportedendpoint=IC50 valuemeasured="0.3 to 3 nM"
compound="Cc1cc(N)cc(-c2nc3c4c(nc(OCC56C=CCN5C[C@H](F)C6)nc4c2F)N2C[C@H]4CC[C@H](N4)[C@H]2CCO3)c1C(F)(F)F (single isomer, unassigned) [Example 204]" reportedendpoint=IC50 valuemeasured="3 to 1000 nM"
compound="Cc1cc(N)cc(-c2nc3c4c(nc(OC[C@]56CCCN5CC(F)(F)C6)nc4c2F)N2C[C@H]4CC[C@H](N4)[C@H]2CCO3)c1C(F)(F)F [Example 34]" reportedendpoint=IC50 valuemeasured="3 to 1000 nM"
compound="Cc1cc(N)cc(-c2nc3c4c(nc(OCC5(CN6CCC(O)(C(F)(F)F)C6)CC5)nc4c2F)N2C[C@H]4CC[C@H](N4)[C@H]2CCO3)c1C(F)(F)F (mixture of isomers) [Example 92]" reportedendpoint=IC50 valuemeasured="3 to 1000 nM"
compound="Cc1cc(N)cc(-c2nc3c4c(nc(O[C@@H](C)[C@@H]5CCCN5C5CCOC5)nc4c2F)N2C[C@H]4CC[C@H](N4)[C@H]2CCO3)c1C(F)(F)F (single isomer, unassigned) [Example 228]" reportedendpoint=IC50 valuemeasured="3 to 1000 nM"
compound="Cc1cc(N)cc(-c2nc3c4c(nc(OCC5(CN6CC7(C6)CC(F)(F)C7)CC5)nc4c2F)N2C[C@H]4CC[C@H](N4)[C@H]2CCO3)c1C(F)(F)F [Example 176]" reportedendpoint=IC50 valuemeasured="3 to 1000 nM"

###

target: UniProtKB P01116; experiment: KRAS WT Probe Displacement Assay (TR-FRET, GDP-loaded); assay type: binding; conditions: KRAS WT, read-out: KRAS^WT Probe Displacement Assay IC50
reportedEndpoint: IC50

molecule="CO[C@@H]1C[C@@H](C(C)Oc2nc3c4c(nc(-c5cc(N)cc(C)c5C(F)(F)F)c(F)c4n2)OCC[C@@H]2[C@@H]4CC[C@H](CN32)N4)N(C)C1 (single isomer, unassigned) [Example 144]" valuemeasured="3 to 1000 nM"
molecule="[2H]C([2H])([2H])N1CCC[C@H]1[C@H](C)Oc1nc2c3c(nc(-c4cc(N)cc(C)c4C(F)(F)F)c(F)c3n1)OCC[C@@H]1[C@@H]3CC[C@H](CN21)N3 [Example 141]" valuemeasured="3 to 1000 nM"
molecule="[2H]C([2H])([2H])N1C[C@H](OC)C[C@H]1[C@H](C)Oc1nc2c3c(nc(-c4cc(N)cc(Cl)c4C(F)(F)F)c(F)c3n1)OCC[C@@H]1[C@@H]3CC[C@H](CN21)N3 [Example 220]" valuemeasured="3 to 1000 nM"
molecule="Cc1cc(N)cc(-c2nc3c4c(nc(OCC5(CN6CCCOCC6)CC5)nc4c2F)N2C[C@H]4CC[C@H](N4)[C@H]2CCO3)c1C(F)(F)F [Example 103]" valuemeasured="3 to 1000 nM"
molecule="Nc1cc(Cl)c(C(F)(F)F)c(-c2nc3c4c(nc(OC[C@@]56CCCN5CC(=C(F)F)C6)nc4c2F)N2C[C@H]4CC[C@H](N4)[C@H]2CCO3)c1 [Example 201]" valuemeasured="0.3 to 3 nM"
